Data credit: paper PMC6478823

# System: C. parvum
# Assay type: cell-based, Cryptosporidium parvum
# condition_label: yes/no grouping by phenotypic assay result; compound at EC90
property_name: Sporozoite invasion

Below are worked cases with known answers.
O=C(NC(c1ccccc1)c1ccc2cccnc2c1O)c1ccccc1 (stereo not drawn) [A-5] | no
Oc1c(CN2CCN(c3ccccc3F)CC2)cc(Br)c2cccnc12 [A-6] | no
O=c1[nH]c(=O)n([C@H]2C[C@H](O)[C@@H](CO)O2)cc1F [Floxuridine] | no
c1ccc(CNc2nc(Nc3ccccc3)nc3ccccc23)cc1 [B-1] | yes
Oc1c(C(Nc2ccccn2)c2cccc(Oc3ccccc3)c2)ccc2cccnc12 (stereo not drawn) [A-2] | no
c1ccc(CNc2nc(NCc3ccccc3)c3ccccc3n2)cc1 [B-23] | yes
c1ccc(CNc2nc(NC3CCCC3)nc3ccccc23)cc1 [B-5] | yes
COc1ccc(Nc2nc(NCc3ccccc3Cl)c3ccccc3n2)cc1Cl [B-13] | yes

Proceeding to the next compound to report its Sporozoite invasion.
Given the compound [H]/N=C(/NCCCCC)N/N=C/c1c[nH]c2ccc(OC)cc12 [Tegaserod] , what is its reported Sporozoite invasion?
no
